- Test system: Male Slc-ddy mice
- test_method_notes: Mouse defecation assay
- Type: in vivo
- Set-up: key: −: No Effect; +: Moderately Improved (p<0.05); ++: Significantly Improved (p<0.01)
- condition_summary: 3 mg/kg orally; stool weight 30, 60 and 120 minutes after administration; Dunnett assay vs control
readout_label: Effect

Some molecules with known Effect results, for comparison:
molecule: CCOc1cc(N)c(Cl)cc1C(=O)NC[C@H]1CN(CC2CCN(C(=O)c3ccc(Cl)cc3)CC2)CCO1 [Example 116]
measured_on: Male Slc-ddy mice
Effect: +
--
molecule: COc1cc(N)c(Cl)cc1C(=O)NC[C@H]1CN(CC2CCN(C(=O)CC#N)CC2)CCO1 [Example 223]
measured_on: Male Slc-ddy mice
Effect: ++
--
molecule: COc1cc(N)c(Cl)cc1C(=O)NC[C@H]1CN(CC2CCN(S(C)(=O)=O)CC2)CCO1 [Example 94]
measured_on: Male Slc-ddy mice
Effect: ++
--
molecule: COc1cc(N)c(Cl)cc1C(=O)NC[C@H]1CN(CC2CCN(C(=O)Nc3ccc(Cl)c(Cl)c3)CC2)CCO1 [Example 58]
measured_on: Male Slc-ddy mice
Effect: +

Okay, next one:
Prompt: Give the reported Effect for COc1cc(N)c(Cl)cc1C(=O)NC[C@H]1CN(CC2CCN(C(=O)N(C(C)C)C(C)C)CC2)CCO1.Cl [Example 88] (system: Male Slc-ddy mice).
Completion: ++
